target: Tyrosine-protein kinase Yes (Homo sapiens); further: in the data inactive means no Kd found up to 30 µM
Sequence (P07947 whole entry): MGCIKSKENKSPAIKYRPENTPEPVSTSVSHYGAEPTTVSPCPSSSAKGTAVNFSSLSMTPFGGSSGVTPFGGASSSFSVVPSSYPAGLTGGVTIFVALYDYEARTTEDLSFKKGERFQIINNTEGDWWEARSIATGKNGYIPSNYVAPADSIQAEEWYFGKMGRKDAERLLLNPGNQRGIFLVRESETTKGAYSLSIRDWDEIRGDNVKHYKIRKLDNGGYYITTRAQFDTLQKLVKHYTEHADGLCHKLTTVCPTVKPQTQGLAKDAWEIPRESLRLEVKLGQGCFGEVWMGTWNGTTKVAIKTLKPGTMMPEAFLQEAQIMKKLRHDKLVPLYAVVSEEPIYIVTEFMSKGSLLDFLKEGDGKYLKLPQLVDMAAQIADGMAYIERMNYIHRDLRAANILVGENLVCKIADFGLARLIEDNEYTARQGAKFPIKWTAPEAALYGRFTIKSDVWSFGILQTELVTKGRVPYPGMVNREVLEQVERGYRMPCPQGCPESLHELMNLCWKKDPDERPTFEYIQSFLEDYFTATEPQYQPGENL
Activity calls are given as the source filed them.
Hi there, use one of these labels in your reply, thanks! label 1 for active, label 0 for inactive

Use the examples below as a reference point.
>>> print(df.to_string())
                                   compound  classification
0  CC[C@@](C)(Nc1ccnc(-c2c[nH]c3ncccc23)n1)C(=O)NCC(F)(F)F         label 0
1  O=c1[nH]c([C@@H]2CCCN2)nc2c1oc1ccc(Cl)cc12         label 0
2  COc1cccc(Nc2ncnn3ccc(CN4CC[C@@H](N)[C@H](O)C4)c23)c1         label 1
3  COc1ccc(-c2ccc3ncc4c(c3c2)n(-c2ccc(N3CCNCC3)c(C(F)(F)F)c2)c(=O)n4C)cn1 [BGT-226 FREE BASE]         label 0
4          COc1cc2ncnc(Nc3ccc(O)cc3)c2cc1OC         label 0

IN: Check the results log: what was the call for `CC(C)CC(=O)Nc1[nH]nc2c1CN(C(=O)C1CCN(C)CC1)C2(C)C` ?
OUT: label 0

IN: Which result was noted for this compound in the test: `C=CC(=O)Nc1cc(Nc2nccc(-c3cn(C)c4ccccc34)n2)c(OC)cc1N(C)CCN(C)C`
OUT: label 0

IN: Hi, do you know how `CN1CCN(c2nc(C3=C(c4c[nH]c5ccccc45)C(=O)NC3=O)c3ccccc3n2)CC1` came out in this test?
OUT: label 0

IN: Recorded call for `C=CCn1c(=O)c2cnc(Nc3ccc(N4CCN(C)CC4)cc3)nc2n1-c1cccc(C(C)(C)O)n1` ?
OUT: label 0
